# Assay Target: T1, human NK1 receptor (human, UniProt P25103 1-407)
# T1 construct: whole, on cells; membrane preparations of the transfected cells were used; also called hNK1; human neurokinin-1 receptor
# T1 sequence (P25103 whole entry): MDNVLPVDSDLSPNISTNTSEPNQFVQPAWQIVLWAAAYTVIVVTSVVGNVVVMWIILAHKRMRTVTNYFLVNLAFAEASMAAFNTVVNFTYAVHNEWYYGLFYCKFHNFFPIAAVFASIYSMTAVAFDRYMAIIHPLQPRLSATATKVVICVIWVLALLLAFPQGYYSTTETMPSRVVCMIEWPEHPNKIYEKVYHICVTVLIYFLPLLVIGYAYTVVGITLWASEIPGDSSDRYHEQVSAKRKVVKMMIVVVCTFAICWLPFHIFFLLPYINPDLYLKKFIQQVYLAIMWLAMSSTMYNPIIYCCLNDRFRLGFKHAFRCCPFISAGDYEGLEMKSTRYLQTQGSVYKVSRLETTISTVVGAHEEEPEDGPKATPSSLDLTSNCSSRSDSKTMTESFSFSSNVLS
# Test Protocol: competition vs [3H]Substance P, hNK1 CHO cell membranes
Bridge positions count the residues as written; N and C are the ends. Square brackets hold non-standard residues; d marks the D form. Ends that are not written are not given here. * marks the point of attachment. NH(3,5-(CF3)2-benzyl) = FC(F)(F)c1cc(CN*)cc(C(F)(F)F)c1; Nle = CCCC[C@H](N)C(=O)O
So I've got a bunch of binders here, and I need their pKi values.
Reminder that pKi is minus the log10 of a molar concentration.

I have this binder here, Y[dC]GF[Nle]PCW-{NH(3,5-(CF3)2-benzyl)} (disulfide 2-7, cyclic; also called TY035; [D-Cys2, Cys7]TY027) [Tyr[DCysGlyPheNleProCys]TrpNHBn(CF3)2] , and I need its recorded pKi.
10.00

I have this binder here, Y[dC]GF[Nle]P[dC]W-{NH(3,5-(CF3)2-benzyl)} (disulfide 2-7, cyclic; also called TY038; [D-Cys2, D-Cys7]TY027) [Tyr[DCysGlyPheNleProDCys]TrpNHBn(CF3)2] , and I need its recorded pKi.
9.60
